Examples of compounds with documented inhibiting rate to T-cell proliferation (Con A) follow.
- Test system: T-cell proliferation (Con A)
- measurement_protocol: Lymphocyte proliferation test, T-cell proliferation stimulated with Con A
- Assay type: cell-based, Balb/c mice
- Design: concentration or dose not given beside the values
- condition_parameters: concentration without any cytotoxicity; screened at 10, 1 and 0.1 μm
Give the quantity in %, number only.

# annotated cases, reported inhibiting rate to T-cell proliferation (Con A) shown
Look at this compound and give its reported inhibiting rate to T-cell proliferation (Con A). CNCC(O)COC1OC2OC3(C)CCC4C(C)CCC(C1C)C24OO3 (stereo not shown) [Example 3]
47

Then what about the compound CC1CCC2C(C)C(OCC(O)CN3CCCC3)OC3OC4(C)CCC1C32OO4 (stereo not shown) [Example 11] ?
48

Next:
Look at this compound and give its reported inhibiting rate to T-cell proliferation (Con A). CC1CCC2C(C)C(OCC(O)CN3CCCCC3)OC3OC4(C)CCC1C32OO4 (stereo not shown) [Example 12]
47

Then what about the compound CC1CCC2C(C)C(OCC(O)C(c3ccccc3)N3CCCCC3)OC3OC4(C)CCC1C32OO4 (stereo not shown) [Example 16] ?
0

Then what about the compound CC1CCC2C(C)C(OCC(O)C(NC(C)(C)C)c3ccccc3)OC3OC4(C)CCC1C32OO4 (stereo not shown) [Example 18] ?
9

Then what about the compound CC1CCC2C(C)C(OCC(O)C(N)c3ccccc3)OC3OC4(C)CCC1C32OO4 (stereo not shown) [Example 8] ?
13

Then what about the compound CC1CCC2C(C)C(OCC(O)C(c3ccccc3)N(C)C)OC3OC4(C)CCC1C32OO4 (stereo not shown) [Example 17] ?
6

Then what about the compound CC1CCC2C(C)C(OCCN)OC3OC4(C)CCC1C32OO4 (stereo not drawn) [Example 1, 2′-amino arteether (β type)] ?
65

Then what about the compound CC1CCC2C(C)C(OCC(O)CN)OC3OC4(C)CCC1C32OO4 (stereo not shown) [Example 2] ?
48

Then what about the compound CC1CCC2C(C)C(OCC(O)CNC(C)(C)C)OC3OC4(C)CCC1C32OO4 (stereo not shown) [Example 14] ?
52

====

Examples of compounds with documented inhibiting rate to B-cell proliferation (LPS) follow.
- System: B-cell proliferation (LPS)
- measurement_protocol: Lymphocyte proliferation test, B-cell proliferation stimulated with LPS
- Type: cell-based, Balb/c mice
- condition_parameters: concentration without any cytotoxicity; screened at 10, 1 and 0.1 μm
- Experimental: Experimental animals: inbred Balb/c male mice, 6-8 weeks old. […] 4) After the incubation was terminated, the cells were harvested on a glassfiber film with a cell harvestor (HARVESTER96®, TOMTEC), and after scintillation fluid was added, the incorporation of [^3H]-thymidine in the cell DNA was measured with a liquid scintillation counter (MicroBeta Trilux®, PerkinElmer) to indicate the state of cell proliferation.
Give the quantity in %, number only.

Look at this compound and give its reported inhibiting rate to B-cell proliferation (LPS). CC1CCC2C(C)C(OCC(O)CNC(C)(C)C)OC3OC4(C)CCC1C32OO4 (stereo not shown)
81

Then what about the compound CC1CCC2C(C)C(OCC(O)C(NC(C)(C)C)c3ccccc3)OC3OC4(C)CCC1C32OO4 (stereo not shown) ?
26

Then what about the compound CC1CCC2C(C)C(OCC(O)C(N)c3ccccc3)OC3OC4(C)CCC1C32OO4 (stereo not shown) ?
42

Now look at this entry.
Look at this compound and give its reported inhibiting rate to B-cell proliferation (LPS). CC1CCC2C(C)C(OCC(O)CN3CCCC3)OC3OC4(C)CCC1C32OO4 (stereo not shown)
99

These data points were gathered from patent US8129426B2.
